The reported measurements were obtained from ChEMBL document CHEMBL3596119.

# maps each entry to its Ki
measurement description: Displacement of [3H]DTG from sigma2 receptor in rat liver membrane homogenates
Assay type: cell membranes
value kind: Ki

>>> value_measured("O=C(c1ccc(F)cc1)C1CCN(C2Cc3c(cccc3OCCF)CC2O)CC1 (single isomer, unassigned; (-))")
"> 10 µM"
>>> value_measured("O=C(c1ccc(F)cc1)C1CCN([C@@H]2Cc3c(cccc3OCCF)C[C@H]2O)CC1 (racemic)")
"> 10 µM"
>>> value_measured("O=C(c1ccc(OCCOCCOCCF)cc1)C1CCN([C@@H]2Cc3ccccc3C[C@H]2O)CC1")
"> 10 µM"
